Entries and their Ki
Subject Of Test: WDR5Δ23 (Homo sapiens, UniProt P61964)
Construct: His6-SUMO (N, cleaved yes); made in house; host or cells: E. coli DH5α (so in the source)
Experiment Notes: Fluorescence polarization (FP)-based competitive binding assay
Assay Context: non-irradiated peptide (trans isomer); 72 nM WDR5Δ23, 20 nM tracer 22; read-out: Ki, non-irradiation (trans)
Starred links: 1 amine or outer side, 2 acyl side, 3 side chain; linkers in the order of their positions; H or OH if unused. Non-standard residues stand in square brackets, D forms with d. Residues, ends and D or L forms follow the SMILES beside them. AMPB = O=C(c1ccc(N=Nc2ccc(CN[*:1])cc2)cc1)[*:2]
Quick reminder: number only, in nM, skip the unit.

{"Compound": "CC(C)C[C@H](NC(=O)[C@H](Cc1c[nH]cn1)NC(=O)c1ccc(N=Nc2ccc(CNC(=O)[C@H](CCC(=O)O)NC(=O)[C@H](C)NC(=O)[C@H](CCCNC(=N)N)NC(=O)[C@H](C)NC(=O)[C@@H](N)CO)cc2)cc1)C(=O)N[C@@H](CCCNC(=N)N)C(=O)N[C@@H](CCCCN)C(=O)N[C@@H](CO)C(N)=O [peptide 8, H2N-SARAEXHLRKS-CONH2] (H-SARAE[AMPB]HLRKS-NH2)", "Measurement Unit": "nM", "Ki": 2.4}

**Q:** What value of measured Ki is listed for CC(C)[C@H](NC(=O)[C@H](CCC(=O)O)NC(=O)[C@H](C)NC(=O)[C@H](CCCNC(=N)N)NC(=O)[C@H](C)NC(=O)[C@@H](N)CO)C(=O)N[C@@H](Cc1c[nH]cn1)C(=O)NCc1ccc(N=Nc2ccc(C(=O)N[C@@H](CCCNC(=N)N)C(=O)N[C@@H](CCCCN)C(=O)N[C@@H](CO)C(N)=O)cc2)cc1 [peptide 10, H2N-SARAEVHXRKS-CONH2] (H-SARAEVH[AMPB]RKS-NH2) ?
**A:** 17

Data provenance: paper PMC5618341
